target: BQ.1.1 spike protein (SARS-CoV-2 variant BQ.1.1, UniProt P0DTC2 14-1273); experiment: cell-based or functional assay
observed property: IC50 (pVNT)

binder	measured result
Ab9 (C68) (antibody, V domains shown) VH: QVQLVQSGAEVKKPGASVKVSCKISGYTLTDFSIHWVRQAPGKGLEWMAGFDPEHRETIFAQKFQGRVAMTEATSTDTAYMELSSLRSDDTAVYYCATTGDFDSWRGYYLWGQGTLVTVSA VL: DIQLTQSPSSVSASVGDSVTITCRASQGISRWLAWYQQKPGKAPRLLIYSASTLQSGVPSRFSGSGSGTDFTLTISSLQPDDFATYYCQHTNNFPFSFGPGTKVDIK	≤ 550 ng/ml
